Molecular target: 14-3-3 protein zeta/delta (Bos taurus)
Assay: disruptors of 14-3-3 zeta phospho-Bad complex – biochemical, TR-FRET, bovine 14-3-3 zeta, primary screen (AID 781);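 further: 0% = full 14-3-3 plus peptide FRET controls and 100% = background without 14-3-3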
Settings: TR-FRET 14-3-3zeta/Dy647-pBad peptide displacement, 1 h; at 21.7 µM; stronger effect = higher value
Out of some 220,000 compounds screened, about 1,600 (0.73%) were called active. The full list was thinned out, with actives kept by preference.
Could you please report measured inhibition for the items listed next?

In the examples that follow, each entry is paired with its recorded inhibition.
[[record]]
compound = "CC1CCC2(CC1)NC(=O)N(Cc1nnc(-c3cccs3)o1)C2=O (stereo unspecified)"
endpoint_value = "21.6% (inactive)"

[[record]]
compound = "Cc1csc(NC(=O)CN2CCCCCC2)n1"
endpoint_value = "79.5% (active)"

[[record]]
compound = "S=c1[nH]nc(-c2ccco2)n1/N=C/c1ccccc1"
endpoint_value = "-2.42% (inactive)"

[[record]]
compound = "O=[N+]([O-])c1ccc(N=Cc2c(O)ccc3ccccc23)cc1"
endpoint_value = "2.73% (inactive)"


Hi, could you look up inhibition for each item in my list?
1. CC(=O)Nc1ccc(S(=O)(=O)NC2(C(F)(F)F)C(=O)NC(C)=C2C#N)cc1 (stereo unspecified)
2. Cc1ccc(CN2CCN(Cc3ccc(OCCO)cc3)CC2CCO)o1 (stereo unspecified)

Output line:
-3.08% (inactive)
-4.12% (inactive)

For every item below, please supply its inhibition.
1. N/C(=N\OC(=O)Cc1ccccc1[N+](=O)[O-])c1ccc(Br)cc1
2. Cn1c(-c2ccco2)nc2cc3ccccc3cc21
3. COc1ccc(CC(=O)NCC(=O)N/N=C/c2cc(Br)ccc2OC)cc1
4. C/C(N)=C(/C#N)C(=O)COC(=O)c1cc(-c2ccccc2)nc2ccc(Br)cc12
5. N/C(=N\OC(=O)Cc1ccc([N+](=O)[O-])cc1)c1ccccn1

Output line:
1. 93.1% (active)
2. 75.6% (active)
3. -0.33% (inactive)
4. -9.11% (inactive)
5. -17.6% (inactive)
